# credit: patent US20240400689A1

// reported EC50 per item
- testSystem: T1, human CD276 protein (human, UniProt Q5ZPR3 29-534)
- T1 construct: whole, on cells; for SKOV3 and the other cancer lines the protein is the cells' own; also called B7-H3; B7H3
- T1 sequence (looked up): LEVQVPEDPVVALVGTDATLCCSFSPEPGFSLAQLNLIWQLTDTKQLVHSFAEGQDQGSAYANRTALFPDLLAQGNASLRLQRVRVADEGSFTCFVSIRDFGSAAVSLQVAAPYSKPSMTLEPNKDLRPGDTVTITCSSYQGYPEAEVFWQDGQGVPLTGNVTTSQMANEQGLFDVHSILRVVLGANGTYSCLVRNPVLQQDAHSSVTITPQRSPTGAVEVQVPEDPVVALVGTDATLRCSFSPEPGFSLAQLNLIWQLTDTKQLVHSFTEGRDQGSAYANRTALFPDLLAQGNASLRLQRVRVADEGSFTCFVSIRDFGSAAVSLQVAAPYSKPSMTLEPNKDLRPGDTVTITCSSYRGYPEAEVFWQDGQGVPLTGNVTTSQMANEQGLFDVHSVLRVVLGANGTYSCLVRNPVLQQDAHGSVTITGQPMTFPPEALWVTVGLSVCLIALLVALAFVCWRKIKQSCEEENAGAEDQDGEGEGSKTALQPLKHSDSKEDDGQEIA
- testSummary: FACS on SKOV3 cells
reportedProperty: EC50 (µg/mL)

- binder: "23-F10-G4-F11 (human IgG1 chimeric antibody) (antibody, V domains shown, human IgG1 chimeric antibody of the mouse clone) VH: EVQLQESGPDLVRPGALVKLSCKSSGFNIKDYPIHWVRQRPEQGLEWIGWFDPDNGNVIYDPRFQGKASITADTSSNTAYLQLNSLTSEDTAVYYCSSPYGAMDYWGQGTSVTVSS VL: QIVLTQSPEIMSASPGEKVTMTCSASSSVSYIHWYQQKSGTSPKRWIYDTSKLASGVPARFSGSGSGTSYSLTIRSMEAEDAATYYCQQGSSNPRTFGGGTKLEIK"
  measureUnit: "µg/mL"
  endpointValue: 4.42
- binder: "16-C6-F7-F5 (human IgG1 chimeric antibody) (antibody, V domains shown, human IgG1 chimeric antibody of the mouse clone) VH: QIQLVQSGPEVKKPGETVKISCKASGYTFTKYGINWVKQAPGEGLKWMGWIWTYTGKPTYGDDFKGRFAFSLETSASTAYLQISDLKIEDMATYFCARDDGYYYTMNYWGQGTSVTVSS VL: DIVMTQTPLSLPVSLGDQASISCRSSQSLLHTNGDTYLHWYLQKAGQPPKLLIYKVSNRFSGVPDRFSGSGSGTDFTLKISRVEAEDLGVYFCSQSTHIPWTFGGGTKLEIK"
  measureUnit: "µg/mL"
  endpointValue: 0.186
- binder: "7-E1-F8-F6 (human IgG1 chimeric antibody) (antibody, V domains shown, human IgG1 chimeric antibody of the mouse clone) VH: QVQLQQSGPELVKPGASVQMSCKASGYTFTDYVISWVNQRTGQGLEWIGEIYPRSGNTYYNEKFKGKATLTADKSSNTAYMQLSSLTSEDSAVYFCARFDIAYSFDYWGQGTTLTVSS VL: DVVMTQTPLSLPVSLGDQASISCRSTQSLVHSNGVTYLHWYLQKPGQSPKLLIYKVSNRFSGVPDRFSGSGSGTDFTLKISRVEAEDLGVYFCSQGTHVPWTFGGGTKLEIK"
  measureUnit: "µg/mL"
  endpointValue: 0.982
- binder: "8-C3-E3-F3 (human IgG1 chimeric antibody) (antibody, V domains shown, human IgG1 chimeric antibody of the mouse clone) VH: EVQLVESGGGLVQPGGSLKLSCAASGFTFSNYGLSWVRLTPDKRLEVVATIGSYGGNTYYPDSVKGRFTISRDNAKNTLYLQMSSLKSEDTAIYYCARDIYYGNSEAWFAYWGQGTLVTVSA VL: DIVMTQAAFSNPVTLGTSASISCRSSKSLLHSNGITYLYWYLQKPGQSPQLLIYQMSNLASGVPDRFSSSGSETDFTLRISRVEAEDVGVYYCAQNLELPWTFGGGTKLEIK"
  measureUnit: "µg/mL"
  endpointValue: 0.643
- binder: "27-F8-E10-E11 (human IgG1 chimeric antibody) (antibody, V domains shown, human IgG1 chimeric antibody of the mouse clone) VH: EVQLQQSGPELVKPGASVKISCKTSGYTFTEYAMHWVKQSHGKILEWIGGINPNIGGTTYNQKFKDKATLTVDKSSSTASMELRSLTSEDSAVYYCARFLVPSTEGFTYWGQGTLVTVSA VL: QIVLTQSPAIMSASPGEKVTMTCSASSSVSYMHWYQQKSGTSPKRWIYDTSRVASGVPARFSGSGSGTSYSLTISSMEAEDAATYYCQQWSSNPLTFGAGTKLELK"
  measureUnit: "µg/mL"
  endpointValue: 2.26
